- assay.comment: Cytotoxicity test on Vero cells (alamarBlue)
- Assay type: cell-based, African green monkey
- condition.details: cell line not given; read-out: CC50 of the iron chelator
- Method: Vero cells (kidney of African green monkey epithelial cell line) were cultured at 37 °C in the MEM liquid medium supplemented with 10% FBS (EuroClone SpA), 1% levoglutamine (EuroClone SpA), and 1% penicillin–streptomycin (EuroClone SpA). […] The cytotoxicity of the compounds was determined using mammalian kidney epithelial cells (Vero cell line) and human acute monocytic leukemia cell line (THP-1). […]
value.kind: CC50 at 72 h

The molecule identified as CC(=O)N(O)CCCCCNC(=O)CCC(=O)N(O)CCCCCNC(=O)CCC(=O)N(O)CCCCCN [DFO, desferrioxamine, reference compound] registered its CC50 at 72 h at > 400 µM
